- Tested on: RKO
- method notes: Antiproliferative activity against human RKO cells incubated for 48 hrs by MTT assay
- Type: functional, cell-based

chemical structure: COc1cccc(Nc2ccnc3cc(OC)ccc23)c1
IC50: > 10 µM
--
chemical structure: CCCCCCCCOc1ccc2c(Nc3cccc(F)c3)ccnc2c1
IC50: 9.54 µM
--
chemical structure: COc1ccc2c(Nc3cccc(O)c3)ccnc2c1
IC50: > 10 µM
--
chemical structure: Fc1cccc(Nc2ccnc3cc(OCCCc4ccccc4)ccc23)c1
IC50: > 10 µM
--
chemical structure: Brc1cccc(Nc2ccnc3cc(Br)ccc23)c1
IC50: > 10 µM
--
chemical structure: CCCCOc1ccc2c(Nc3cccc([N+](=O)[O-])c3)ccnc2c1
IC50: 7.81 µM
--
chemical structure: COc1ccc2c(Nc3cccc(Br)c3)ccnc2c1
IC50: > 10 µM
--
chemical structure: CCOc1ccc2c(Nc3cccc(F)c3)ccnc2c1
IC50: > 10 µM
--
chemical structure: CCCCOc1ccc2c(Nc3cccc(OC)c3)ccnc2c1
IC50: 8.1 µM
--
chemical structure: O=[N+]([O-])c1cccc(Nc2ccnc3cc(Cl)ccc23)c1
IC50: > 10 µM
--
chemical structure: Fc1ccc(COc2ccc3c(Nc4cccc(F)c4)ccnc3c2)cc1
IC50: > 10 µM
--
chemical structure: COc1ccc2c(Nc3ccc(Cl)c(Cl)c3)ccnc2c1
IC50: > 10 µM
--
chemical structure: CCCCOc1ccc2c(Nc3cccc(Br)c3)ccnc2c1
IC50: > 10 µM

====

- Test system: HeLa
- method notes: Antiproliferative activity against human HeLa cells incubated for 48 hrs by MTT assay
- Assay type: functional, cell-based

chemical structure: C=CCOc1ccc2c(Nc3cccc(OC)c3)ccnc2c1
IC50: 2.2 µM
//
chemical structure: COc1cccc(Nc2ccnc3cc(Br)ccc23)c1
IC50: > 10 µM
//
chemical structure: Fc1cccc(Nc2ccnc3cc(OCc4ccccc4)ccc23)c1
IC50: > 10 µM
//
chemical structure: C=CCOc1ccc2c(Nc3cccc([N+](=O)[O-])c3)ccnc2c1
IC50: 0.22 µM
//
chemical structure: COc1ccc2c(Nc3cccc([N+](=O)[O-])c3)ccnc2c1
IC50: > 10 µM
//
chemical structure: Fc1cccc(Nc2ccnc3cc(Br)ccc23)c1
IC50: > 10 µM

====

Listed here: items and their measured IC50.
- Tested on: HeLa
- method notes: Antiproliferative activity against human HeLa cells incubated for 48 hrs by MTT assay
- Assay type: functional, cell-based

chemical structure: CC(C)Oc1ccc2c(Nc3cccc(F)c3)ccnc2c1
result operator: =
IC50 (µM): 0.2
//
chemical structure: Brc1cccc(Nc2ccnc3cc(Br)ccc23)c1
result operator: >
IC50 (µM): 10
//
chemical structure: CCCCCCCCOc1ccc2c(Nc3cccc(OC)c3)ccnc2c1
result operator: =
IC50 (µM): 7.72
//
chemical structure: O=[N+]([O-])c1cccc(Nc2ccnc3cc(Cl)ccc23)c1
result operator: >
IC50 (µM): 10
//
chemical structure: COc1ccc2c(Nc3cccc(Br)c3)ccnc2c1
result operator: >
IC50 (µM): 10
//
chemical structure: Fc1ccc2c(Nc3cccc(Br)c3)ccnc2c1
result operator: >
IC50 (µM): 10
//
chemical structure: Clc1cccc(Nc2ccnc3cc(Br)ccc23)c1
result operator: >
IC50 (µM): 10
//
chemical structure: COc1cccc(Nc2ccnc3cc(OC(C)C)ccc23)c1
result operator: =
IC50 (µM): 0.23
//
chemical structure: COc1cccc(Nc2ccnc3cc(Cl)ccc23)c1
result operator: >
IC50 (µM): 10
//
chemical structure: CCCCOc1ccc2c(Nc3cccc(F)c3)ccnc2c1
result operator: =
IC50 (µM): 1.43
//
chemical structure: O=[N+]([O-])c1cccc(Nc2ccnc3cc(OCc4ccccc4)ccc23)c1
result operator: =
IC50 (µM): 5.39
//
chemical structure: CCCCOc1ccc2c(Nc3cccc(Br)c3)ccnc2c1
result operator: =
IC50 (µM): 0.84
//
chemical structure: COc1cccc(Nc2ccnc3cc(F)ccc23)c1
result operator: >
IC50 (µM): 10
//
chemical structure: CCOc1ccc2c(Nc3cccc(F)c3)ccnc2c1
result operator: =
IC50 (µM): 0.68
//
chemical structure: O=[N+]([O-])c1cccc(Nc2ccnc3cc(Br)ccc23)c1
result operator: >
IC50 (µM): 10
//
chemical structure: Fc1ccc(COc2ccc3c(Nc4cccc(F)c4)ccnc3c2)cc1
result operator: >
IC50 (µM): 10
//
chemical structure: CCCCOc1ccc2c(Nc3cccc(OC)c3)ccnc2c1
result operator: =
IC50 (µM): 6.56
//
chemical structure: O=[N+]([O-])c1cccc(Nc2ccnc3cc(OCCCc4ccccc4)ccc23)c1
result operator: =
IC50 (µM): 4.13
//
chemical structure: CCCCCCCCOc1ccc2c(Nc3cccc(F)c3)ccnc2c1
result operator: =
IC50 (µM): 4.3
//
chemical structure: CCCCCCCCOc1ccc2c(Nc3cccc([N+](=O)[O-])c3)ccnc2c1
result operator: >
IC50 (µM): 10
//
chemical structure: Fc1cccc(Nc2ccnc3cc(Cl)ccc23)c1
result operator: >
IC50 (µM): 10
//
chemical structure: CCCCOc1ccc2c(Nc3cccc([N+](=O)[O-])c3)ccnc2c1
result operator: =
IC50 (µM): 4.35
//
chemical structure: CC(C)Oc1ccc2c(Nc3cccc([N+](=O)[O-])c3)ccnc2c1
result operator: =
IC50 (µM): 0.52
//
chemical structure: Fc1cccc(Nc2ccnc3cc(OCCCc4ccccc4)ccc23)c1
result operator: =
IC50 (µM): 0.25
//
chemical structure: O=[N+]([O-])c1cccc(Nc2ccnc3cc(F)ccc23)c1
result operator: >
IC50 (µM): 10
